# credit: paper PMC5797146

TGT: T1, Clostridium difficile toxin A (Clostridioides difficile …, UniProt P16154)
T1 construct: also called TcdA
METHOD_SUMMARY: SPR
CONDITION: both partners purified
The entries below come with measured kon values attached.
Respond with the bare value in M⁻¹ s⁻¹.

Example cases with answers are listed next.
BINDER: A26.8 VHH N109R (VHH, source: E. coli TG1, periplasmic extract, purified (IMAC, SEC)) VHH: QVKLEESGGGLVQAGGSLRLSCAASERTFSRYPVAWFRQAPGAEREFVAVISSTGTSTYYADSVKGRFTISRDNAKVTVYLQMNNLKREDTAVYFCAVNSQRTRLQDPREYDYWGQGTQVTVSS
kon [M⁻¹ s⁻¹]: 2e+06

BINDER: A26.8 VHH T54R (VHH, source: E. coli TG1, periplasmic extract, purified (IMAC, SEC)) VHH: QVKLEESGGGLVQAGGSLRLSCAASERTFSRYPVAWFRQAPGAEREFVAVISSRGTSTYYADSVKGRFTISRDNAKVTVYLQMNNLKREDTAVYFCAVNSQRTRLQDPNEYDYWGQGTQVTVSS
kon [M⁻¹ s⁻¹]: 3.6e+06

BINDER: A26.8 VHH T54Y (VHH, source: E. coli TG1, periplasmic extract, purified (IMAC, SEC)) VHH: QVKLEESGGGLVQAGGSLRLSCAASERTFSRYPVAWFRQAPGAEREFVAVISSYGTSTYYADSVKGRFTISRDNAKVTVYLQMNNLKREDTAVYFCAVNSQRTRLQDPNEYDYWGQGTQVTVSS
kon [M⁻¹ s⁻¹]: 1.8e+06

BINDER: A26.8 VHH Q101K, T103M (VHH, source: E. coli TG1, periplasmic extract, purified (IMAC, SEC)) VHH: QVKLEESGGGLVQAGGSLRLSCAASERTFSRYPVAWFRQAPGAEREFVAVISSTGTSTYYADSVKGRFTISRDNAKVTVYLQMNNLKREDTAVYFCAVNSKRMRLQDPNEYDYWGQGTQVTVSS
kon [M⁻¹ s⁻¹]: 3.3e+06

BINDER: A26.8 VHH T103W (VHH, source: E. coli TG1, periplasmic extract, purified (IMAC, SEC)) VHH: QVKLEESGGGLVQAGGSLRLSCAASERTFSRYPVAWFRQAPGAEREFVAVISSTGTSTYYADSVKGRFTISRDNAKVTVYLQMNNLKREDTAVYFCAVNSQRWRLQDPNEYDYWGQGTQVTVSS
kon [M⁻¹ s⁻¹]: 2.4e+06

BINDER: A26.8 VHH T103K (VHH, source: E. coli TG1, periplasmic extract, purified (IMAC, SEC)) VHH: QVKLEESGGGLVQAGGSLRLSCAASERTFSRYPVAWFRQAPGAEREFVAVISSTGTSTYYADSVKGRFTISRDNAKVTVYLQMNNLKREDTAVYFCAVNSQRKRLQDPNEYDYWGQGTQVTVSS
kon [M⁻¹ s⁻¹]: 2.5e+06

BINDER: A26.8 VHH R104W (VHH, source: E. coli TG1, periplasmic extract, purified (IMAC, SEC)) VHH: QVKLEESGGGLVQAGGSLRLSCAASERTFSRYPVAWFRQAPGAEREFVAVISSTGTSTYYADSVKGRFTISRDNAKVTVYLQMNNLKREDTAVYFCAVNSQRTWLQDPNEYDYWGQGTQVTVSS
kon [M⁻¹ s⁻¹]: 300000

Kindly review the next binder as well.
get_value(item= A26.8 VHH T56R (VHH, source: E. coli TG1, periplasmic extract, purified (IMAC, SEC)) VHH: QVKLEESGGGLVQAGGSLRLSCAASERTFSRYPVAWFRQAPGAEREFVAVISSTGRSTYYADSVKGRFTISRDNAKVTVYLQMNNLKREDTAVYFCAVNSQRTRLQDPNEYDYWGQGTQVTVSS , readout=kon) returns 4.8e+06
